Let's go through some IC50 measurements on C3 convertase (CVF:Bb) (Homo sapiens) together.
Sequence (P00751 260-764 limits assumed): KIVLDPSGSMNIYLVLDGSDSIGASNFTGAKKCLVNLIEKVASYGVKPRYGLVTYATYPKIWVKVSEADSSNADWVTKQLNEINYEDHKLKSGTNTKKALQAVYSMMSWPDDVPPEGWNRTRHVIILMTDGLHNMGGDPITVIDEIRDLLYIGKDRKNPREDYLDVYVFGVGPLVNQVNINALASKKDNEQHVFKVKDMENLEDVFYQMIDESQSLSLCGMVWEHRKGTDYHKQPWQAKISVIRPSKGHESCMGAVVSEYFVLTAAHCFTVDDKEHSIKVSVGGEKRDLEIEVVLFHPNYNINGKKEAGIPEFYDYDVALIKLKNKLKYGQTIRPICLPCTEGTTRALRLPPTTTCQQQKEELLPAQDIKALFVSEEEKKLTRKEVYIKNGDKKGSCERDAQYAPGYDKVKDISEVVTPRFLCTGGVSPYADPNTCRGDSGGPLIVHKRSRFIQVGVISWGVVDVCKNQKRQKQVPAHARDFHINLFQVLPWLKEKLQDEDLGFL
measurement-kind: IC50 (nM)

>>> readout_value("COc1cc(C)c2[nH]ccc2c1CN1CCN(CC2CC2)CC1c1ccc(C(=O)O)cc1 (stereo not shown)")
2290
>>> readout_value("COCCN1CCN(Cc2c(OC)cc(C)c3[nH]ccc23)C(c2ccc(C(=O)O)cc2)C1 (stereo not shown)")
221
>>> readout_value("COc1cc(C)c2[nH]ccc2c1CN1CCN(CC(F)(F)F)C[C@H]1c1ccc(C(=O)O)cc1")
176
>>> readout_value("COc1cc(C)c2[nH]ccc2c1CN1CCN(CC(F)F)C[C@H]1c1ccc(C(=O)NS(C)(=O)=O)cc1")
243
>>> readout_value("COc1cc(C)c2[nH]ccc2c1CN1CCN(CCC(F)(F)F)C[C@H]1c1ccc(C(=O)NS(C)(=O)=O)cc1")
56
>>> readout_value("COc1cc(C)c2[nH]ccc2c1CN1CCN(C2CCCC2)CC1c1ccc(C(=O)O)cc1 (stereo not shown)")
3880
>>> readout_value("COc1cc(C)c2[nH]ccc2c1CN1CCN(CC2CCC2)CC1c1ccc(C(=O)O)cc1 (stereo not shown)")
1350
>>> readout_value("CCC(C)CN1CCN(Cc2c(OC)cc(C)c3[nH]ccc23)C(c2ccc(C(=O)O)cc2)C1 (stereo not shown)")
6590
>>> readout_value("COc1cc(C)c2[nH]ccc2c1CN1CCN(CC(F)(F)F)C[C@H]1c1ccc(C(=O)NS(C)(=O)=O)cc1")
212
